# TARGET_OF_ASSAY: Metabotropic glutamate receptor 5 (Rattus norvegicus)
# Sequence (P31424 whole entry): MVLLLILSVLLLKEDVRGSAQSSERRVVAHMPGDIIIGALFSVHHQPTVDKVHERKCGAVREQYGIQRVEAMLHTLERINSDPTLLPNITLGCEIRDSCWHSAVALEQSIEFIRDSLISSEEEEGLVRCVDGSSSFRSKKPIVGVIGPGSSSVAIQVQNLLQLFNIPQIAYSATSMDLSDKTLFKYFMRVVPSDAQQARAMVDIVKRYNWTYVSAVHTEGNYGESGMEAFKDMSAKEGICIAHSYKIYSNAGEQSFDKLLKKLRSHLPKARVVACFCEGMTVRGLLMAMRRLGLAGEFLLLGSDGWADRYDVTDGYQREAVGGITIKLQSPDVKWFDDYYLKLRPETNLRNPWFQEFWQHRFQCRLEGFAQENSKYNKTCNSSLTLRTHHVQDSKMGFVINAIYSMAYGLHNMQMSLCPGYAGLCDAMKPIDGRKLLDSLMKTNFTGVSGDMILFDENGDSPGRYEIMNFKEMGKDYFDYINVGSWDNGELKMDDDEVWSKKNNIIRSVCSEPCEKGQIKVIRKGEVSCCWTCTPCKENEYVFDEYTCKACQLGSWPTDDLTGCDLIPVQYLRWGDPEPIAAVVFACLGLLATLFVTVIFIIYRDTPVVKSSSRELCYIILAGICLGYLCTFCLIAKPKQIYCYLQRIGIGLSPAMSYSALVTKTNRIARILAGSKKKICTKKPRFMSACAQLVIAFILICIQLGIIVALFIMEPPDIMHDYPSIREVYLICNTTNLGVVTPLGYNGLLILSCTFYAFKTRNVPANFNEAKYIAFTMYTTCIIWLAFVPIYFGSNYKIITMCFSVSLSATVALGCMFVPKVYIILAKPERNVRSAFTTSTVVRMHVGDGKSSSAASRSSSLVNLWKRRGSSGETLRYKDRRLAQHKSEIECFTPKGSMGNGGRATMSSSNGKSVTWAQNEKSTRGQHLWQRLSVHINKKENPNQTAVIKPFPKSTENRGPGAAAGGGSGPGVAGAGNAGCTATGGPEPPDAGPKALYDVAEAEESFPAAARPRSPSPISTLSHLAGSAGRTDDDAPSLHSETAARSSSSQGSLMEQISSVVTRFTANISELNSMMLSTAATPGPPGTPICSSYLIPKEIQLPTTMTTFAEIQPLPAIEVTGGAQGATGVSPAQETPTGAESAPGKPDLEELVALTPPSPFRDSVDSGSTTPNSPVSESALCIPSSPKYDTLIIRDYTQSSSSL
# TEST_DESCRIPTION: Identification of a glycine sulfonamide based non-MPEP site positive allosteric potentiator (PAM) of mGlu5 (calcium_assay).
# Type: functional
The source made the active and inactive calls.

{"columns": ["MOLECULE", "EC50"],
 "data": [
  ["CS(=O)(=O)N(CC(=O)Nc1ccccc1)c1ccccc1Cl", "0.049 µM"],
  ["CS(=O)(=O)N1c2ccccc2CCC1C(=O)Nc1nccs1 (stereo not drawn)", "4.43 µM"],
  ["CC(C)NC(=O)CN(c1ccccc1Cl)S(C)(=O)=O", "> 30 µM (inactive)"]
]}

* * *

# TEST_DESCRIPTION: A549 cell cytotoxicity, dose response, cytotoxicity control, plate reader, cherry-pick, antagonist series (AID 743412)
# Type: functional, cell-based
The source made the active and inactive calls.
Possible outcomes: active, inactive

{"columns": ["MOLECULAR_STRING", "GROUP_LABEL"],
 "data": [
  ["COCC(=O)N1CCCCN2[C@H](CO)[C@H](c3ccc(-c4cccc(C)c4)cc3)[C@@H]2C1", "inactive"],
  ["C[C@H](CO)N1C[C@H](C)[C@H](CN(C)C(=O)Nc2ccc(C(F)(F)F)cc2)OCCCC[C@H](C)Oc2ccc(NC(=O)NC3CCCCC3)cc2C1=O", "inactive"],
  ["O=C(NC1CCCCC1)c1[nH]nc2c1CCCCC2", "active"],
  ["C=CCn1c(C)cc(C2=NN=C(NCC)SC2)c1C", "active"]
]}

* * *

# TARGET_OF_ASSAY: UniProt:P29990
# TEST_DESCRIPTION: flavivirus cap methylation enzyme inhibition – biochemical, confirmation dose response, primary screen (AID 588689)
# Type: functional
Active and inactive are the calls of the source.
This section presents compounds with their documented IC50 values.

{"columns": ["COMPOUND", "IC50"],
 "data": [
  ["O=C1NC(=S)N(c2ccccc2F)C(=O)/C1=C\\c1cccs1", "70.3 µM (active)"],
  ["COCCNC(=O)c1c(NC(=O)c2ccco2)n(Cc2ccccc2)c2nc3ccccc3nc12", "> 100 µM (active)"],
  ["Cc1cccc2c1c1ccc3c(c1n2C)C(=O)C=CC3=O", "33.5 µM (active)"],
  ["O=C(O)CC1S/C(=N/N=C/c2ccc(-c3ccccc3[N+](=O)[O-])o2)NC1=O (centres undefined)", "89 µM (active)"],
  ["COc1cc(/C=C2/SC(NS(=O)(=O)Cc3ccccc3)=NC2=O)c([N+](=O)[O-])cc1OC", "76.1 µM (active)"],
  ["COc1ccc2nc3cccc(OC)c3nc2c1", "> 100 µM (active)"],
  ["Cn1cccc1/C=C1\\C(=O)NC(=O)N(Cc2ccccc2)C1=O", "23.4 µM (active)"],
  ["COc1ccc2c(c1)Cc1cc(NC(=O)c3ccccc3-c3ccccc3C(=O)O)ccc1-2", "46.3 µM (active)"],
  ["N#C/C(=C\\c1cccs1)C(=O)c1ccccc1", "> 100 µM (active)"]
]}

* * *

# TEST_DESCRIPTION: viability of uninfected HEp-2 cells – cell-based, HTS, cytotoxicity control for RSV inhibitor project, dose response (AID 2410)
# Type: functional
# ASSAY_CONTEXT: human respiratory syncytial virus
Calls of active or inactive are those of the source.

{"columns": ["MOLECULAR_STRING", "CC50"],
 "data": [
  ["CCn1c(=O)c2cc(C(=O)N(C)c3cc(C)ccc3OC)sc2c2ccccc21", "21.2 µM (active)"],
  ["CC(C)(C)c1nc(SCC(=O)c2ccccc2)c2ccccc2n1", "39.5 µM (active)"],
  ["COC(=O)c1c(-c2ccccc2)csc1NC(=O)c1c(-c2ccccc2)noc1C", "6.35 µM (active)"],
  ["O=[N+]([O-])c1ccc(N=Nc2c(O)[nH]c3ccc(F)cc23)cc1", "26.1 µM (active)"]
]}

* * *

Active and inactive are the calls of the source.
AC50, Cytochrome P450 2C9 (Homo sapiens, UniProt P11712): measured values

{"columns": ["COMPOUND", "AC50"],
 "data": [
  ["COc1ccccc1CNc1ncncc1-c1ccoc1", "1.58 µM (inconclusive)"],
  ["O=C(/C=C/c1ccccc1)NNC(=O)c1cccnc1", "7.08 µM (inconclusive)"],
  ["Cc1ccc(Oc2nn[nH]n2)cc1", "7.08 µM (inconclusive)"],
  ["O=C(NCC1CCCO1)C(c1cccnc1)N(C(=O)Cc1cccs1)c1ccccc1 (stereo unspecified)", "15.8 µM (inconclusive)"],
  ["CC(C)CN1CC[C@@]2(CCCN(C(=O)Oc3ccccc3)C2)C1", "31.6 µM (inconclusive)"],
  ["Cc1nc2c(C)cccn2c1C(=O)C1=C(O)C(=O)N(CCN2CCOCC2)C1c1cccs1 (stereo unspecified)", "10 µM (inconclusive)"],
  ["COc1ccccc1CNc1ncncc1-c1ccccc1OC", "1.58 µM (inconclusive)"],
  ["CCOC(=O)/C(C#N)=C\\N(C)C", "39.8 µM (inconclusive)"],
  ["CCC(=C(CC)c1ccc(O)cc1)c1ccc(O)cc1 [DIETHYLSTILBESTROL]", "12.6 µM (active)"],
  ["C/C(=N\\NC(=O)c1[nH]c2c([N+](=O)[O-])cc(C)cc2c1-c1ccccc1)c1cccnc1", "8.91 µM (inconclusive)"],
  ["COc1cccc(-c2cncnc2NCc2ccc(OC)cc2OC)c1", "1 µM (inconclusive)"],
  ["C=CC[C@@H]1C=C[C@H](Oc2ccc(C)cc2)[C@H](COC(=O)NCc2cccc3ccccc23)O1", "3.98 µM (inconclusive)"],
  ["Clc1ccccc1-c1cncnc1NCCc1cnc[nH]1", "1 µM (inconclusive)"],
  ["CCN(CC)S(=O)(=O)N1CCC(C(=O)NC2CCCC2)CC1", "3.16 µM (inconclusive)"],
  ["O=C(Nc1cc(C(F)(F)F)ccc1-n1cncn1)c1ccc(Br)cc1", "3.16 µM (inconclusive)"],
  ["O=C(Nc1ccccc1N1CCOCC1)c1ccc([N+](=O)[O-])cc1", "10 µM (inconclusive)"],
  ["Oc1c(CN2CCOCC2)cc(-c2ccccc2)cc1CN1CCOCC1", "28.2 µM (inconclusive)"],
  ["O=C(CSc1nnc(Cn2nnc3ccccc32)o1)Nc1cccc(Cl)c1", "15.8 µM (inconclusive)"],
  ["CN(C)c1ccc(-c2noc(C3CCN(S(=O)(=O)c4cccc(C(=O)O)c4)CC3)n2)cc1", "15.8 µM (inconclusive)"],
  ["CCNC(C)(C)[C@@H](SS)c1ccc(Br)cc1", "6.31 µM (inconclusive)"],
  ["Cc1cc2c(nc1C)CCCCN2C[C@H](O)CN1CCCc2nc(-c3ccc(Br)cc3)ccc21", "3.98 µM (inconclusive)"],
  ["O=c1c(-c2cccs2)nc2cnc(Oc3ccccc3)nc2n1Cc1cccs1", "1.58 µM (inconclusive)"],
  ["CC(C)c1ccc(C2C(C#N)=C(N)N3C(=C2C#N)Sc2ccccc23)cc1 (stereo unspecified)", "10 µM (inconclusive)"],
  ["Cc1ccc2[nH]c(SCc3ccc([N+](=O)[O-])cc3)nc2c1", "3.55 µM (active)"],
  ["COc1cccc(Cn2c(=O)c(-c3ccc(Cl)cc3)nc3cnc(OC)nc32)c1", "7.94 µM (inconclusive)"],
  ["CCOC(=O)c1c(NC(=O)CCCN2CCOCC2)sc2c1CC(C)(C)OC2", "0.282 µM (inconclusive)"]
]}

* * *

This section presents compounds with their documented IC50 values.
# TARGET_OF_ASSAY: Fatty acid synthase (Homo sapiens)
# Sequence (P49327 whole entry): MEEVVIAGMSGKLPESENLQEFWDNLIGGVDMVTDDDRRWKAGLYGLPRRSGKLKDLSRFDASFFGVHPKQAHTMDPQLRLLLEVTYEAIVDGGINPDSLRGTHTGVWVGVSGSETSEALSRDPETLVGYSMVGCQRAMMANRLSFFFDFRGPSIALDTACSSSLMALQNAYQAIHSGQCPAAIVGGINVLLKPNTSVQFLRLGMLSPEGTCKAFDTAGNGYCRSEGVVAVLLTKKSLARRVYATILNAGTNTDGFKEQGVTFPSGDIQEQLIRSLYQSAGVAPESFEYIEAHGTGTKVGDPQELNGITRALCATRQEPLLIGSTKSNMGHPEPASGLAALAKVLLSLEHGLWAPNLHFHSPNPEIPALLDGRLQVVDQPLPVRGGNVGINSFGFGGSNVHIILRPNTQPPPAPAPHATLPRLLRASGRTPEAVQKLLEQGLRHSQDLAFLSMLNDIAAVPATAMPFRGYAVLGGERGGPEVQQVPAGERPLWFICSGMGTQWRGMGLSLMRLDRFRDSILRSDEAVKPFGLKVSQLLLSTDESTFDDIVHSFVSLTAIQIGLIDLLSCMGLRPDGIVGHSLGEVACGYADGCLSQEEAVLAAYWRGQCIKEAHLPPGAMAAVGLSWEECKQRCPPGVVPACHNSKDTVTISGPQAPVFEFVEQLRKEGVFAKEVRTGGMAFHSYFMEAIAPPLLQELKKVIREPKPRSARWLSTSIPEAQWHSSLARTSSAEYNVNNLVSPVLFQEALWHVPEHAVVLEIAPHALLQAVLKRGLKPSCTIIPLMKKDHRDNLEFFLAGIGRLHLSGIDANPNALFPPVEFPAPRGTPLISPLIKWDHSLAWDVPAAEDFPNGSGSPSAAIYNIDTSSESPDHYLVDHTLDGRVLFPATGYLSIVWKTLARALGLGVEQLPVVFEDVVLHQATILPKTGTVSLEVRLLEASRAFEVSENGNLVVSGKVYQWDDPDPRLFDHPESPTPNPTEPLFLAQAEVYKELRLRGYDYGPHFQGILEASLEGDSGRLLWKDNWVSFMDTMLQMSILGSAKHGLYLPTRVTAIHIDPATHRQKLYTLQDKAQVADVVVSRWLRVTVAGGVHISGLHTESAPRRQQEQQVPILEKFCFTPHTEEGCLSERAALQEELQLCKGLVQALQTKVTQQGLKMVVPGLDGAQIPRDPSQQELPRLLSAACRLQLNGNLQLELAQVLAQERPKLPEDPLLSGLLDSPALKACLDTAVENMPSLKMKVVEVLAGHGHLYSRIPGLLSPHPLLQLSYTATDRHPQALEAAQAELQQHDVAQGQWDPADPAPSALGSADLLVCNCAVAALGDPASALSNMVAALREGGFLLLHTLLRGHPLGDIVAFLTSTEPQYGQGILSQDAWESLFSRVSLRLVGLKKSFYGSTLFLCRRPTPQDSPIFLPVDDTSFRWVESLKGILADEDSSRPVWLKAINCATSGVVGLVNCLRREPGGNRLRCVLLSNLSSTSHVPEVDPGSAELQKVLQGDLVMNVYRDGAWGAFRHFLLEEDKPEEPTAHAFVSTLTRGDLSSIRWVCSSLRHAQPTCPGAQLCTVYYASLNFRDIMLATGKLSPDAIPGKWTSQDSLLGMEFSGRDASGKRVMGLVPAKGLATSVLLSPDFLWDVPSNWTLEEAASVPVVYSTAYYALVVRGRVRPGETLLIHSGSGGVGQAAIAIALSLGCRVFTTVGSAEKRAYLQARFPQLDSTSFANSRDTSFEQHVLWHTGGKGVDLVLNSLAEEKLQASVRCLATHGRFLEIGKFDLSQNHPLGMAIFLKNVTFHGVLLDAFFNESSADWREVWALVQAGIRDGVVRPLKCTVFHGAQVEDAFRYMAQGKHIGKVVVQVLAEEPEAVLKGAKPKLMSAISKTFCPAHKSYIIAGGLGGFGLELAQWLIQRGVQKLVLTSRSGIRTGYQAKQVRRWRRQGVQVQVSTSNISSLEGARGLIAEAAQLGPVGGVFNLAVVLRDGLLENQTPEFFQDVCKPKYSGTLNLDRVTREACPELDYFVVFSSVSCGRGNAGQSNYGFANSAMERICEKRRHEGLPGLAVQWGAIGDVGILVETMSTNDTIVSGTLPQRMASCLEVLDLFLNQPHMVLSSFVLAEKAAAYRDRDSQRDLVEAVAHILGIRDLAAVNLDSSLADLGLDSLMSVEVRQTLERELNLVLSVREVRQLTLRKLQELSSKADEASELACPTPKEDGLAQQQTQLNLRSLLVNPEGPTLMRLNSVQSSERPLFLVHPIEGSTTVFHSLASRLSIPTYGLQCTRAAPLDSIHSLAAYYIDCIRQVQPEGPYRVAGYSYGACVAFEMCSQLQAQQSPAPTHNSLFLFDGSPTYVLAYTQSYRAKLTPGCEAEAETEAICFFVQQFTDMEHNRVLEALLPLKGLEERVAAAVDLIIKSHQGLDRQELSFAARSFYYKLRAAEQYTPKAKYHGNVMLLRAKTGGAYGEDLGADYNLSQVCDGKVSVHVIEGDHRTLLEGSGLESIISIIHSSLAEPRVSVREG
# TEST_DESCRIPTION: inhibition of human FAS-TE enzyme activity – biochemical, endpoint fluorescence intensity, uHTS hits, dose response (AID 624327);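 also: fluorescence from hydrolysis of an O-methyl fluorescein acyl ester substrate by the enzyme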
# Format: functional
The source made the active and inactive calls.

{"columns": ["MOLECULAR_STRING", "IC50"],
 "data": [
  ["COc1ccccc1C(=O)COC(=O)c1cc([N+](=O)[O-])ccc1N1CCOCC1", "5.96 µM (active)"],
  ["COc1ccccc1/C=C(\\NC(=O)c1ccc(OC)c(OC)c1)C(=O)Nc1cc([N+](=O)[O-])ccc1C", "2.16 µM (active)"],
  ["CC(C)(C)c1ccc(OCCC(=O)OCC(=O)N2c3ccccc3NC(=O)C2(C)C)cc1", "11.2 µM (active)"],
  ["O=C(/C=C/c1cccc([N+](=O)[O-])c1)NCCSCc1ccc(Cl)cc1", "10.2 µM (active)"]
]}

* * *

# TEST_DESCRIPTION: Luminescence Cell-Based Dose Confirmation HTS to Identify Activators of 5'UTR Stem-Loop Driven Alpha-Synuclein mRNA Translation in H4 Neuroglioblastoma Cells. [Related pubchem assays: 1829 (Project Summary), 1814 (Primary HTS)]
# Assay type: functional
Calls of active or inactive are those of the source.

{"columns": ["MOLECULE", "EC50"],
 "data": [
  ["CCOC(=O)C1CCN(S(=O)(=O)c2c(Cl)ccc3nonc23)CC1", "> 120 µM (not active)"],
  ["COC(=O)c1ccc(C2OCC(C)(C)CO2)cc1", "> 120 µM (not active)"],
  ["C/C(=N/C1CC1)C1=C(O)c2ccccc2C1=O", "> 120 µM (not active)"],
  ["Cc1ccc(Oc2nn[nH]n2)cc1", "> 120 µM (not active)"],
  ["Clc1ccc(-c2csc(N3CCC(c4ccccc4)C3)n2)cc1 (stereo not drawn)", "18.5 µM (active)"],
  ["COc1cc(/C=N/N=C(/Nc2ccc(C)cc2)c2nc3ccccc3s2)ccc1O", "17.6 µM (active)"],
  ["Cc1cc(NC(=O)CSc2nc3c(C)cccc3cc2C#N)no1", "47.9 µM (active)"],
  ["Cc1cc(O)nc(N=N/C(=N/Nc2ccc(O)cc2)c2ccccc2)n1", "11.6 µM (active)"]
]}

Source listed as ChEMBL document CHEMBL1201862.
